Values compiled from paper PMC4335020.

Assay comment: Single oral dose human plasma pharmacokinetics of D, DA and DOH after Cogni.Q
Type: in vivo
Applied conditions: human, plasma, oral, 4 Cogni.Q vegicaps, subject S4 (170 lb); read-out: Terminal t1/2, h (converted)
For each record, write down the corresponding half-life.
// note: answer is a bare numeric in h

Input: May I ask what half-life has been recorded for CC1(C)Oc2cc3oc(=O)ccc3cc2C[C@@H]1O ?
Output: 11.1

Input: // query half-life value for entry C/C=C(/C)C(=O)O[C@H]1Cc2cc3ccc(=O)oc3cc2OC1(C)C [DA, decursinol angelate]
Output: 17.7

Input: Please look up its half-life: CC(C)=CC(=O)O[C@H]1Cc2cc3ccc(=O)oc3cc2OC1(C)C
Output: 10.8
